Data credit: patent US10508077B2

Molecular target: Full length human recombinant HDAC8 protein (Homo sapiens)
Construct: Full length human recombinant HDAC8 protein was expressed in baculoviral system
Assay: In vitro histone deacetylase assay: enzymatic HDAC8 assay, electrophoretic mobility shift
Conditions: substrate RHKK(Ac)-NH2, 1 nM enzyme, compounds listed under IC50 range headings
quantity.name: IC50

Answered cases to consult:
1. O=C(/C=C/c1ccccc1N1CCC(NC(=O)Cc2ccc(F)cc2)CC1)NO = < 1000 nM
2. CC(C)(C)OC(=O)N1CCN(c2ccccc2/C=C/C(=O)NO)CC1 = < 1000 nM
3. O=C(/C=C/c1ccccc1N1CCC(NC(=O)c2cc3ccccc3[nH]2)CC1)NO = < 1000 nM
4. O=C(/C=C/c1ccccc1NC(=O)c1ccccc1Oc1ccccc1)NO = < 1000 nM
5. CN1CCC(C)(CN2CCN(c3ccccc3/C=C/C(=O)NO)CC2)CC1 = < 1000 nM
6. CN(C(=O)c1cccc(C(F)(F)F)c1)c1ccccc1/C=C/C(=O)NO = < 1000 nM

## Input Give the reported value of IC50 for this record: Cc1ccc(CC(=O)Nc2ccccc2/C=C/C(=O)NO)cc1
## Output < 1000 nM

## Input Determine its reported IC50: O=C(/C=C/c1ccccc1NCc1ccc(-c2ccccc2)c(C(F)(F)F)c1)NO
## Output < 1000 nM

## Input Give the value of IC50 reported for the following: CC(=O)NC1CCN(C(=O)c2ccccc2/C=C/C(=O)NO)CC1
## Output 1000 to 10000 nM

###

Below, each entry is listed with its recorded IC50.
Biological target: Full length human recombinant HDAC8 protein (Homo sapiens, UniProt Q9BY41)
Construct: Full length human recombinant HDAC8 protein was expressed in baculoviral system
Sequence (Q9BY41 1-377): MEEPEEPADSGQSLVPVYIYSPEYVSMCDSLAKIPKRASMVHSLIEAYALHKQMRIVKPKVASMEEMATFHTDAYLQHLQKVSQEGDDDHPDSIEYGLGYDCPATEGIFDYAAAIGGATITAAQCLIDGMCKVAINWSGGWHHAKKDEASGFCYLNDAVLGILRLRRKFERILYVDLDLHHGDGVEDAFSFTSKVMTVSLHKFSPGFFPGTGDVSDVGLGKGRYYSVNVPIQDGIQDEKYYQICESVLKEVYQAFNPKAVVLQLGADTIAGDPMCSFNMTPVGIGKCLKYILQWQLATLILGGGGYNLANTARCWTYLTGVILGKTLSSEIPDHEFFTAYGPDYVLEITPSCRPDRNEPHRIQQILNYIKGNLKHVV
Experiment: In vitro histone deacetylase assay: enzymatic HDAC8 assay, electrophoretic mobility shift
Details: substrate RHKK(Ac)-NH2, 1 nM enzyme, compounds listed under IC50 range headings

1. Cc1ccc(Oc2ccccc2C(=O)Nc2ccccc2/C=C/C(=O)NO)cn1 = < 1 µM
2. COCC1(N(C)C(=O)c2ccccc2/C=C/C(=O)NO)CC1 = 1 to 10 µM
3. O=C(/C=C/c1ccccc1C(=O)N1CCC(F)(F)CC1)NO = < 1 µM

## Input // fetch IC50 given entry COc1ccc(S(=O)(=O)NC2CCN(c3ccccc3/C=C/C(=O)NO)CC2)cc1OC
## Output < 1 µM

## Input Look up and report measured IC50 for this entry: CC(Cc1ccccc1)C(=O)N1CCN(c2ccccc2/C=C/C(=O)NO)CC1 (stereo not drawn)
## Output < 1 µM

## Input Given O=C(/C=C/c1ccccc1N1CCN(Cc2ccccn2)CC1)NO , respond with its IC50.
## Output < 1 µM

## Input Please supply the value of reported IC50 for the item CC(C)(C)OC(=O)N1CCC2(CCN(c3ccccc3/C=C/C(=O)NO)C2)C1 (stereo not drawn)
## Output < 1 µM

## Input Quickly give me recorded IC50 for O=C(/C=C/c1ccccc1N1CCC(NS(=O)(=O)c2ccc(C(F)(F)F)nc2)CC1)NO
## Output < 1 µM

## Input Give me measured IC50, please, for this molecule: O=C(/C=C/c1cc(C(F)(F)F)ccc1NC(=O)c1ccccc1Oc1ccc(F)cc1)NO
## Output < 1 µM

## Input Give the reported IC50 for this molecule. CCCCCCN1CCN(c2ccccc2/C=C/C(=O)NO)CC1
## Output < 1 µM

## Input Note IC50 for the molecule shown: Cc1nnc(C)n1C1CCN(C(=O)c2ccccc2/C=C/C(=O)NO)CC1
## Output < 1 µM

## Input State its IC50 for this molecule: O=C(/C=C/c1ccccc1NCc1ccc(-c2nnn[nH]2)cc1)NO
## Output < 1 µM

## Input Kindly indicate its recorded IC50. Item: O=C(/C=C/c1ccccc1NC(=O)c1ccccc1CCc1ccccc1)NO
## Output < 1 µM

## Input Specify measured IC50 for O=C(/C=C/c1ccccc1N1CCN(S(=O)(=O)Cc2ccc(F)cc2)CC1)NO .
## Output < 1 µM

## Input Output measured IC50 for this item: O=C(/C=C/c1ccccc1NC(=O)Nc1cccc(C(F)(F)F)c1)NO
## Output 1 to 10 µM

## Input Return reported IC50. Input molecule: O=C(/C=C/c1ccccc1N1CCC(NC(=O)COc2ccc(Cl)cc2)CC1)NO
## Output 1 to 10 µM

## Input Specify IC50 for O=C(/C=C/c1ccccc1N1CCN(Cc2ccccc2C(F)(F)F)CC1)NO and stop.
## Output < 1 µM

## Input Determine from records and report IC50 for CS(=O)(=O)c1cccc(CNc2ccccc2/C=C/C(=O)NO)c1
## Output < 1 µM
